B1: VPS39 (parent)
chain: TTLLKCYLHTNVALVAPLLRLENN

- Variants of: B1
- Assay Name: protein stability index of a GFP-peptide fusion (GPS, HEK-293T) (PSI 1-6); higher = more stable;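 note: lentivirally expressed fusions sorted by FACS into six bins by GFP to DsRed ratio, PSI derived from sequencing read proportions per bin multiplied by bin number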
- Measurement Context: c terminus: a fixed tail appended
Assay Metric: protein stability index
Numbers only.

Sequence String	Assay Metric	Experimental Value
TTLLKCYLHRNVALVAPLLRLENN	protein stability index	3.11
TTLLKCYLHTNVALVAPLLRLENL	protein stability index	3.19
TTLLKCYLHTNVAVVAPLLRLENN	protein stability index	2.25
TTLLKCYLHTNVALVAPLLRQENN	protein stability index	2.14

Record protein stability index per entry; entries follow.
1. TTLLKCYDHTNVALVAPLLRLENN
2. TTPLKCYLHTNVALVAPLLRLENN
3. TTLLKCYLHTNVANVAPLLRLENN
4. TTLLKCYLHTNVVLVAPLLRLENN
5. TTLLKCYLHTNVALVPPLLRLENN
6. TTLLKCYLHTNFALVAPLLRLENN

1.75
1.96
2.16
3.55
3.28
2.91

Record protein stability index per entry; entries follow.
1. TTLLKCYLHTNVALVAPLLRLDNN
2. TTLLKCYGHTNVALVAPLLRLENN
3. TTLHKCYLHTNVALVAPLLRLENN

1: 2.71; 2: 1.57; 3: 2.36

Record protein stability index per entry; entries follow.
1. TTLLKCYLHTNVALVAPLLRLEEN
2. TTLLKCYLHTNVALVAPLLRSENN
3. TTLNKCYLHTNVALVAPLLRLENN

1: 2.49; 2: 1.63; 3: 1.25
